Biological target: T1, Rnd1 GTPase (residues 5-200), loaded with GMPPNP (UniProt Q92730 5-200)
T1 sequence (looked up): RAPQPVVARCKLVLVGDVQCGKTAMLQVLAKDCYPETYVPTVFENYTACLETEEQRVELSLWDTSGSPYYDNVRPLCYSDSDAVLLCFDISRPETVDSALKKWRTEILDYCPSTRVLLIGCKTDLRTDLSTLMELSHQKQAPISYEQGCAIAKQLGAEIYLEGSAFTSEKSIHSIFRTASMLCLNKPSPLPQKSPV
Assay: ITC
Measured dH accompanies every entry in the list below.
parameter measured: dH

1. plexin-C1 RBD K1267L (domain or fragment) TVALNVVFEKIPENESADVCRNISVNVLDCDTIGQAKEKIFQAFLSKNGSPYGLQLNEIGLELQMGTRQLELLDIDSSSVILEDGITKLNTIGHYEISNGSTIKVFKK; -1.9 kcal/mol
2. plexin-A2 Rho GTPase binding domain (RBD), residues 1490-1600 (domain or fragment, human, UniProt O75051 1490-1600, looked up) LIRQQIEYKTLILNCVNPDNENSPEIPVKVLNCDTITQVKEKILDAVYKNVPYSQRPRAVDMDLEWRQGRIARVVLQDEDITTKIEGDWKRLNTLMHYQVSDRSVVALVPK; -8 kcal/mol
3. plexin-D1 RBD Y1618L (domain or fragment) AKPRNLNVSFQGCGMDSLSVRAMDTDTLTQVKEKILEAFCKNVPYSQWPRAEDVDLEWFASSTQSLILRDLDDTSVVEDGRKKLNTLAHYKIPEGASLAMSLIDKKDNTLGRVKDLDTEKYFHLVL; -3.1 kcal/mol
